- Test system: Tt72 pol D78A/D615A (Thermus thermophilus MAT72 phage vB_Tt72)
- test.protocol: MST
- condition.context: 0.5 mM Mg2+; MST: 10 mM Tris-HCl pH 8.5, 0.5 mM MgSO4, 50 mM KCl, 10 mM (NH4)2SO4, 0.05% Tween 20; 1 nM oligo; 10 min at 55 °C, measured at 25 °C
measured.attribute: Kd (nM)
Only the number, expressed in nM, is required.

Enquiry: Output reported Kd of the sequence TGGCTGCTTCTAAGCCAACATCCT / CTAGTGAGGATGTTGGCTTAGAAGCAGCCA [polTt72-Cy5/polTt72-long primer/template] on Tt72 pol D78A/D615A (Thermus thermophilus MAT72 phage vB_Tt72).
Return: 78

====

- Tested on: Tt72 pol D78A/D384A (Thermus thermophilus MAT72 phage vB_Tt72)
- test.protocol: MST
- condition.context: 0.5 mM Mg2+; MST: 10 mM Tris-HCl pH 8.5, 0.5 mM MgSO4, 50 mM KCl, 10 mM (NH4)2SO4, 0.05% Tween 20; 1 nM oligo; 10 min at 55 °C, measured at 25 °C
measured.attribute: Kd (nM)
Only the number, expressed in nM, is required.

Enquiry: Output reported Kd of the sequence TGGCTGCTTCTAAGCCAACATCCT / CTAGTGAGGATGTTGGCTTAGAAGCAGCCA [polTt72-Cy5/polTt72-long primer/template] on Tt72 pol D78A/D384A (Thermus thermophilus MAT72 phage vB_Tt72).
Return: 100

====

- Tested on: Tt72 pol D78A/S616A (Thermus thermophilus MAT72 phage vB_Tt72)
- test.protocol: MST
- condition.context: 0.5 mM Mg2+; MST: 10 mM Tris-HCl pH 8.5, 0.5 mM MgSO4, 50 mM KCl, 10 mM (NH4)2SO4, 0.05% Tween 20; 1 nM oligo; 10 min at 55 °C, measured at 25 °C
measured.attribute: pKd
Conceptually, pKd converts a concentration in mol/L into minus its log10.

Enquiry: Output reported pKd of the sequence TGGCTGCTTCTAAGCCAACATCCT / CTAGTGAGGATGTTGGCTTAGAAGCAGCCA [polTt72-Cy5/polTt72-long primer/template] on Tt72 pol D78A/S616A (Thermus thermophilus MAT72 phage vB_Tt72).
Return: 6.89

====

- System: Tt72 pol D78A (exo-) (Thermus thermophilus MAT72 phage vB_Tt72)
- test.protocol: MST
- condition.context: 0.5 mM Mg2+; MST: 10 mM Tris-HCl pH 8.5, 0.5 mM MgSO4, 50 mM KCl, 10 mM (NH4)2SO4, 0.05% Tween 20; 1 nM oligo; 10 min at 55 °C, measured at 25 °C
measured.attribute: Kd
Value and unit, in that order.

Enquiry: Respond only with Kd recorded for TGGCTGCTTCTAAGCCAACATCCT / CTAGTGAGGATGTTGGCTTAGAAGCAGCCA [polTt72-Cy5/polTt72-long primer/template]
Return: 109 nM

====

- Test system: Tt72 pol D184A (Thermus thermophilus MAT72 phage vB_Tt72)
- test.protocol: MST
- condition.context: 0.5 mM Mg2+; MST: 10 mM Tris-HCl pH 8.5, 0.5 mM MgSO4, 50 mM KCl, 10 mM (NH4)2SO4, 0.05% Tween 20; 1 nM oligo; 10 min at 55 °C, measured at 25 °C
measured.attribute: Kd (nM)
Only the number, expressed in nM, is required.

Enquiry: Respond only with Kd recorded for TGGCTGCTTCTAAGCCAACATCCT / CTAGTGAGGATGTTGGCTTAGAAGCAGCCA [polTt72-Cy5/polTt72-long primer/template]
Return: 144

====

- System: Tt72 DNA polymerase WT (Thermus thermophilus MAT72 phage vB_Tt72)
- test.protocol: MST
- condition.context: 0.5 mM Mg2+; MST: 10 mM Tris-HCl pH 8.5, 0.5 mM MgSO4, 50 mM KCl, 10 mM (NH4)2SO4, 0.05% Tween 20; 1 nM oligo; 10 min at 55 °C, measured at 25 °C
measured.attribute: Kd (nM)
Only the number, expressed in nM, is required.

Enquiry: Respond only with Kd recorded for TGGCTGCTTCTAAGCCAACATCCT / CTAGTGAGGATGTTGGCTTAGAAGCAGCCA [polTt72-Cy5/polTt72-long primer/template]
Return: 2

====

- Test system: Tt72 pol L27A (Thermus thermophilus MAT72 phage vB_Tt72)
- test.protocol: MST
- condition.context: 0.5 mM Mg2+; MST: 10 mM Tris-HCl pH 8.5, 0.5 mM MgSO4, 50 mM KCl, 10 mM (NH4)2SO4, 0.05% Tween 20; 1 nM oligo; 10 min at 55 °C, measured at 25 °C
measured.attribute: Kd (nM)
Only the number, expressed in nM, is required.

Enquiry: Output reported Kd of the sequence TGGCTGCTTCTAAGCCAACATCCT / CTAGTGAGGATGTTGGCTTAGAAGCAGCCA [polTt72-Cy5/polTt72-long primer/template] on Tt72 pol L27A (Thermus thermophilus MAT72 phage vB_Tt72).
Return: 32

====

- System: Tt72 pol D15A (Thermus thermophilus MAT72 phage vB_Tt72)
- test.protocol: MST
- condition.context: 0.5 mM Mg2+; MST: 10 mM Tris-HCl pH 8.5, 0.5 mM MgSO4, 50 mM KCl, 10 mM (NH4)2SO4, 0.05% Tween 20; 1 nM oligo; 10 min at 55 °C, measured at 25 °C
measured.attribute: pKd
Conceptually, pKd converts a concentration in mol/L into minus its log10.

Enquiry: Respond only with pKd recorded for TGGCTGCTTCTAAGCCAACATCCT / CTAGTGAGGATGTTGGCTTAGAAGCAGCCA [polTt72-Cy5/polTt72-long primer/template]
Return: 6.63

All values here come from paper PMC9324360.
